TESTED ON: Integrin beta-1 (Homo sapiens) + Integrin alpha-4 (Homo sapiens) (UniProt P13612+P05556)
Sequence (P05556 whole entry, looked up): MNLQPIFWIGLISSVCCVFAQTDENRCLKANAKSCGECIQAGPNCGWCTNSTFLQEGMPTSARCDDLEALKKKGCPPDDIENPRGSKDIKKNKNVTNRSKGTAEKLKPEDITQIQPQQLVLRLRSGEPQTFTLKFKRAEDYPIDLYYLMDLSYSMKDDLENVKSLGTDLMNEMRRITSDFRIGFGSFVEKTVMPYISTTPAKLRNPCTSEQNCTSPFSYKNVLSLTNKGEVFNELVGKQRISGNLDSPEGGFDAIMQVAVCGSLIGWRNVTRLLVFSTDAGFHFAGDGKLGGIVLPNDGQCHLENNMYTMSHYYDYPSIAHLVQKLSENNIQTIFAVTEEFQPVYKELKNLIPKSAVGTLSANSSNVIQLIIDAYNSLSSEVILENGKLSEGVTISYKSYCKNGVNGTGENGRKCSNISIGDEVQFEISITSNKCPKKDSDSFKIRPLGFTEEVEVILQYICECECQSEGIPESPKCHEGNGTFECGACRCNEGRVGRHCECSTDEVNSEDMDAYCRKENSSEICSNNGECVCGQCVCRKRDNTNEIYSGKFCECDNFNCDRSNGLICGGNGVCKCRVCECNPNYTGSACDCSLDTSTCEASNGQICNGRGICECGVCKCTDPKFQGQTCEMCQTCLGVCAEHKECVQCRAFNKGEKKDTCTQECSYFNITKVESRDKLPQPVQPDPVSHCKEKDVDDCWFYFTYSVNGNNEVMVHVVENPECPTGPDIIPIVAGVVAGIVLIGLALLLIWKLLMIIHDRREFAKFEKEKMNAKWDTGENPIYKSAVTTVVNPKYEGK
Sequence (P13612 whole entry, looked up): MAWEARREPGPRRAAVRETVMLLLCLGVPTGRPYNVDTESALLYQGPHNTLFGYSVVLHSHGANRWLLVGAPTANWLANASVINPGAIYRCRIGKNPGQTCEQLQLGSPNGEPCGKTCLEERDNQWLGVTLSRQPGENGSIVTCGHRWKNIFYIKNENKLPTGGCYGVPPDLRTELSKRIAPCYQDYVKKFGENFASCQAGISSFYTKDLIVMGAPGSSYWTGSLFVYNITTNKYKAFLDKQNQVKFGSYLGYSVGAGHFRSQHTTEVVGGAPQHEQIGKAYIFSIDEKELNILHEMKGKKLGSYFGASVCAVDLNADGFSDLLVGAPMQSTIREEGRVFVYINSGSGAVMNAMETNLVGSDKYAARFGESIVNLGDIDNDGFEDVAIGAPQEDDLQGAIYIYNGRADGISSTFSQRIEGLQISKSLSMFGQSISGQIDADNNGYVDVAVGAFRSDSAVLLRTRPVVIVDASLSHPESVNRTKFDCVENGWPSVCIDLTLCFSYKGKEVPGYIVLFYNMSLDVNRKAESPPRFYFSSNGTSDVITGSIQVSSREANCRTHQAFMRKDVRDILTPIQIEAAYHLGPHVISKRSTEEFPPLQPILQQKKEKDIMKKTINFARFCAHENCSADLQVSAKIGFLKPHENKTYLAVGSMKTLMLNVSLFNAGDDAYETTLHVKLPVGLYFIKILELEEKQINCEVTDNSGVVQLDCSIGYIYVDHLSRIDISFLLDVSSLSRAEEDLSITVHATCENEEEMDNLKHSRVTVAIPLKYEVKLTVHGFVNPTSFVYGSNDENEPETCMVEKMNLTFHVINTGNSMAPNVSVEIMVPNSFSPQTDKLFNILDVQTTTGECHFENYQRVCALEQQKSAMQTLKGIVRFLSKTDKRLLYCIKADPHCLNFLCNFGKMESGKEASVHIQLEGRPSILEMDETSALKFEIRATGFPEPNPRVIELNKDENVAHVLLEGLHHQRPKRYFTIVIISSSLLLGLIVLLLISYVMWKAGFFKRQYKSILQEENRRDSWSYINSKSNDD
EXPERIMENT NOTES: alpha4beta1 integrin LIBS antibody binding reduction – U937 cells, HUTS-21 mAb, flow cytometry, validation set, VLA-4 allosteric modulator project, pilot screen (AID 2674);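 note: antibody binding induced by the VLA-4 ligand LDV present at three times its Kd; 0% = LDV ligand with antibody and no compound and 100% = antibody without LDV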
RUN CONDITIONS: HUTS-21 LIBS mAb binding, at 6.7 µM, stronger effect = higher value, binding induced by LDV ligand
What inhibition was measured for each of the following?
Number in %, nothing else.

Query block: What value of measured inhibition is listed for OC12CCCCC1C(c1ccc3c(c1)OCO3)N(Cc1cccc(F)c1)CC2 (configuration not stated) ?
Result block: -5.64

Query block: If you can, please state the reported inhibition value of CC1Cc2ccccc2N1NC(=O)c1ccc(Cl)c(S(N)(=O)=O)c1 (configuration not stated) .
Result block: 3.14

Query block: Dear colleague, I am looking for the recorded inhibition of the following molecule: Cc1cc(O)c(C(=O)Cc2csc(C)n2)c(O)c1
Result block: 1.12

Query block: Requested field: inhibition. Item: CN(C)CCOC(=O)C(c1ccccc1)C1(O)CCCC1 (configuration not stated)
Result block: 13.2

Query block: Param item = CC1(C)CC(=O)c2cnc(NC(=O)C3CCCC3)nc2C1 ; retrieve measured inhibition.
Result block: 4.73

Query block: Would you mind telling me what inhibition value was observed for Cc1cc(C)nc(NS(=O)(=O)c2ccc(N)cc2)n1 ?
Result block: -5.64

Query block: What value of measured inhibition is listed for O=C(CCSc1ccccc1)N1CCCC1 ?
Result block: 3.98

Query block: Give the measured inhibition of CSc1ccc(CN2CCN(CCC(C)C)C(CCO)C2)cc1 (configuration not stated) .
Result block: 4.84

Query block: What measured inhibition goes with CCOC(=O)C(=Cc1ccccc1OC)C(=O)OCC ?
Result block: -18.2

Query block: Look up inhibition for this molecule: CC1(C)CC(NC(=O)C23CCC(C)(C(=O)C2=O)C3(C)C)CC(C)(C)N1 (configuration not stated)
Result block: 10.5

Query block: May I ask what inhibition has been recorded for Cc1cccc(Nc2ncccc2C(=O)O)c1C ?
Result block: 2.66

Query block: Which inhibition reading was recorded for the molecule C#CCN1C(=O)C(O)(c2c(C)[nH]c3ccccc23)c2ccccc21 (configuration not stated) ?
Result block: -0.31
